target: DRB1*1302 (Homo sapiens, UniProt P01903+P01911, A100E/A169T/K41T/L162R/M171V/P40S/Q125H/Q178H/Q39Y/Q99D/R42S/S66N/T262R/V115G/W38E/Y61H); assay: biochemical; format: binding; details: competitive inhibition of radiolabeled standard peptide; '-' distinct from ND; read-out: Binding Affinity (nM) DRB1*1302
Sequence (P01903 26-254 limits assumed, other chains not shown): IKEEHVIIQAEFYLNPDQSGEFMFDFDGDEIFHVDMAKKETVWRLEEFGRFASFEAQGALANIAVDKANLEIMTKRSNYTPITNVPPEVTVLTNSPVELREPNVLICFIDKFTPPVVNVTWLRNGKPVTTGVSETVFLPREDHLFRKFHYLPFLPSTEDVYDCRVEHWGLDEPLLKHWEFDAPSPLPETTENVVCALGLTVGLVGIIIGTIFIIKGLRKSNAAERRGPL
I'd appreciate it if you could supply IC50 values for the items below.
One number for each entry, in nM.

# map each compound to its IC50
1. CC[C@H](C)[C@H](NC(=O)[C@H](Cc1c[nH]c2ccccc12)NC(=O)[C@H](Cc1ccc(O)cc1)NC(=O)CNC(=O)[C@H](CCSC)NC(=O)[C@H](CC(=O)O)NC(=O)[C@H](C)NC(=O)[C@H](Cc1c[nH]cn1)NC(=O)[C@@H](NC(=O)[C@H](C)N)C(C)C)C(=O)N[C@@H](CCC(=O)O)C(=O)N[C@@H](CO)C(=O)N[C@@H](CCC(N)=O)C(=O)N[C@@H](CCCCN)C(=O)N[C@@H](CC(N)=O)C(=O)O [NS1 193-207]
2. CC[C@H](C)[C@H](NC(=O)[C@H](CCCCN)NC(=O)[C@H](C)NC(=O)[C@H](CCCCN)NC(=O)CNC(=O)[C@H](Cc1c[nH]c2ccccc12)NC(=O)[C@@H](N)[C@@H](C)O)C(=O)N[C@H](C(=O)N[C@H](C(=O)N[C@@H](C)C(=O)N[C@@H](CCC(=O)O)C(=O)N[C@H](C(=O)N[C@@H](CCC(N)=O)C(=O)N[C@@H](CC(N)=O)C(=O)N[C@@H](CO)C(=O)O)[C@@H](C)O)[C@@H](C)O)C(C)C [NS1 117-131]

33
1240

# map each compound to its IC50
1. CC[C@H](C)[C@H](NC(=O)[C@H](CC(C)C)NC(=O)[C@H](CC(N)=O)NC(=O)[C@H](Cc1ccc(O)cc1)NC(=O)[C@H](CC(N)=O)NC(=O)[C@@H]1CCCN1)C(=O)N[C@H](C(=O)N[C@@H](CCSC)C(=O)N[C@@H](CC(=O)O)C(=O)N[C@@H](CCC(=O)O)C(=O)N[C@@H](C)C(=O)N[C@@H](Cc1c[nH]cn1)C(=O)N[C@@H](Cc1ccccc1)C(=O)N[C@H](C(=O)N[C@@H](CC(=O)O)C(=O)O)[C@@H](C)O)[C@@H](C)CC [NS3 277-291]
2. CC[C@H](C)[C@H](NC(=O)[C@@H]1CCCN1C(=O)[C@H](CC(C)C)NC(=O)CNC(=O)[C@@H](N)CCCCN)C(=O)N[C@@H](CCCNC(=N)N)C(=O)N[C@@H](Cc1ccc(O)cc1)C(=O)N[C@@H](CCC(N)=O)C(=O)N[C@H](C(=O)N[C@H](C(=O)N[C@@H](C)C(=O)N[C@H](C(=O)N[C@@H](CCCCN)C(=O)N[C@@H](CO)C(=O)N[C@@H](CCC(=O)O)C(=O)O)[C@@H](C)O)[C@@H](C)O)[C@@H](C)O [NS3 237-251]
3. CC[C@H](C)[C@H](NC(=O)[C@H](CC(=O)O)NC(=O)[C@@H](N)CC(C)C)C(=O)N[C@@H](CCC(=O)O)C(=O)N[C@@H](CC(C)C)C(=O)N[C@@H](CCC(N)=O)C(=O)N[C@@H](CCCCN)C(=O)N[C@H](C(=O)N[C@@H](CCC(=O)O)C(=O)N[C@@H](C)C(=O)N[C@H](C(=O)N[C@@H](CCC(N)=O)C(=O)N[C@@H](CC(C)C)C(=O)N[C@@H](C)C(=O)N[C@H](C(=O)O)[C@@H](C)O)[C@@H](C)O)[C@@H](C)O [Envelope 41-55]
4. CC[C@H](C)[C@H](NC(=O)[C@H](CC(C)C)NC(=O)[C@H](CCCCN)NC(=O)CN)C(=O)N[C@@H](Cc1c[nH]cn1)C(=O)N[C@@H](CCC(=O)O)C(=O)N[C@@H](Cc1c[nH]c2ccccc12)C(=O)N[C@@H](CS)C(=O)N[C@@H](CS)C(=O)N[C@@H](CCCNC(=N)N)C(=O)N[C@@H](CO)C(=O)N[C@@H](CS)C(=O)N[C@H](C(=O)N[C@@H](CC(C)C)C(=O)N1CCC[C@H]1C(=O)O)[C@@H](C)O [NS1 305-319]

68
2620
27
3190

* * *

molecular target: DRB5*0101 (Homo sapiens, UniProt P01903+Q30154); experiment: biochemical
readout.label: IC50 (µM)
Numbers only, in µM.

# smiles.structure, test.system, IC50, µM
data = [
    ("CC[C@H](C)[C@H](NC(=O)CNC(=O)[C@@H](NC(=O)[C@@H](NC(=O)[C@@H](NC(=O)[C@H](CC(N)=O)NC(=O)[C@H](CO)NC(=O)[C@H](CCC(=O)O)NC(=O)CNC(=O)[C@H](Cc1ccccc1)NC(=O)[C@@H]1CCCN1C(=O)[C@@H]1CCCN1C(=O)[C@H](CCC(=O)O)NC(=O)[C@H](C)NC(=O)[C@@H](N)CCC(=O)O)[C@@H](C)CC)C(C)C)[C@@H](C)CC)C(=O)O", "DRB5*0101 (Homo sapiens, UniProt P01903+Q30154)", 12.5),
]

# ---- query molecule ----
The measured IC50 associated with `CC[C@H](C)[C@H](NC(=O)[C@H](CC(C)C)NC(=O)[C@H](CCCCN)NC(=O)CNC(=O)[C@H](CO)NC(=O)[C@@H](NC(=O)[C@@H](NC(=O)[C@@H](NC(=O)[C@@H](NC(=O)[C@H](CCCNC(=N)N)NC(=O)[C@H](CC(C)C)NC(=O)[C@@H](N)CO)[C@@H](C)O)[C@@H](C)O)[C@@H](C)O)C(C)C)C(=O)N[C@@H](Cc1c[nH]cn1)C(=O)N[C@@H](CCC(=O)O)C(=O)N[C@@H](Cc1c[nH]c2ccccc12)C(=O)O` reads 2.11

* * *

target: DRB5*0101 (Homo sapiens, UniProt P01903+Q30154); test: biochemical
readout.label: pIC50
One number for each entry, as −log10 of the molar value.

Form: item `CSCC[C@H](NC(=O)CNC(=O)CNC(=O)[C@H](Cc1c[nH]cn1)NC(=O)[C@H](CCCCN)NC(=O)[C@H](CCCNC(=N)N)NC(=O)[C@H](CCC(N)=O)NC(=O)[C@H](CC(C)C)NC(=O)[C@H](CCCNC(=N)N)NC(=O)[C@H](CCC(=O)O)NC(=O)[C@@H](N)CC(C)C)C(=O)N[C@@H](CC(C)C)C(=O)N[C@H](C(=O)N[C@@H](CCCNC(=N)N)C(=O)N[C@@H](CC(N)=O)C(=O)N1CCC[C@H]1C(=O)N[C@@H](CC(C)C)C(=O)O)C(C)C` ; test system DRB5*0101 (Homo sapiens, UniProt P01903+Q30154); pIC50: 5.92

* * *

molecular target: DRB1*0901 (Homo sapiens, UniProt P01903+P01911, A100R/A103E/D57H/D86V/F55Y/F60I/F76Y/I96F/K127E/L162R/M171V/P40D/Q125H/Q99R/R33Q/R42F/S133A/S66N/T210M/V115G/W38K/Y107V/Y59G/Y89S); test: biochemical; type: binding; conditions: competitive inhibition of radiolabeled standard peptide; DRB1*0901; read-out: Binding Affinity (nM) DRB1*0901
readout.label: IC50 (nM)
One number for each entry, in nM.

Guide cases for IC50, answers given:
# smiles.structure, readout.label, reported
measured = [
    ("CC[C@H](C)[C@H](NC(=O)[C@H](CC(N)=O)NC(=O)CNC(=O)[C@@H](NC(=O)CNC(=O)[C@H](CC(N)=O)NC(=O)[C@@H](N)CO)[C@@H](C)O)C(=O)N[C@H](C(=O)N[C@@H](CO)C(=O)N[C@@H](CO)C(=O)N[C@H](C(=O)N[C@@H](CC(N)=O)C(=O)N[C@@H](CCSC)C(=O)N[C@H](C(=O)N[C@@H](CO)C(=O)N[C@@H](CCCNC(=N)N)C(=O)N[C@@H](CC(C)C)C(=O)O)C(C)C)C(C)C)C(C)C", "IC50", 45),
    ("C[C@@H](O)[C@H](NC(=O)[C@H](CO)NC(=O)[C@H](CO)NC(=O)[C@H](Cc1c[nH]cn1)NC(=O)[C@H](CCC(=O)O)NC(=O)[C@H](CCC(=O)O)NC(=O)[C@@H](N)CCCCN)C(=O)N[C@@H](Cc1c[nH]c2ccccc12)C(=O)N[C@@H](Cc1c[nH]cn1)C(=O)N[C@@H](Cc1ccc(O)cc1)C(=O)N[C@@H](CC(=O)O)C(=O)N[C@@H](CC(=O)O)C(=O)N[C@@H](CCC(=O)O)C(=O)N[C@@H](CC(N)=O)C(=O)N1CCC[C@H]1C(=O)N[C@@H](Cc1ccc(O)cc1)C(=O)N[C@@H](CCCCN)C(=O)O", "IC50", 8140),
]

# map each compound to its IC50
1. CC[C@H](C)[C@H](NC(=O)[C@H](C)NC(=O)[C@H](CC(N)=O)NC(=O)[C@H](CO)NC(=O)[C@H](C)NC(=O)[C@H](CC(C)C)NC(=O)[C@H](CCCNC(=N)N)NC(=O)[C@H](CC(C)C)NC(=O)[C@H](CC(=O)O)NC(=O)[C@H](CCCNC(=N)N)NC(=O)[C@@H](N)CCCNC(=N)N)C(=O)N[C@@H](CS)C(=O)N[C@@H](CO)C(=O)N[C@@H](C)C(=O)N[C@H](C(=O)N1CCC[C@H]1C(=O)N[C@H](C(=O)O)C(C)C)C(C)C
2. CC(C)C[C@H](NC(=O)[C@H](C)NC(=O)[C@H](CC(C)C)NC(=O)[C@@H]1CCCN1)C(=O)N[C@@H](CCCCN)C(=O)N[C@@H](CCC(=O)O)C(=O)N[C@@H](Cc1ccccc1)C(=O)N[C@@H](CCCCN)C(=O)N[C@@H](CC(=O)O)C(=O)N[C@@H](Cc1ccccc1)C(=O)N[C@@H](C)C(=O)N[C@@H](C)C(=O)NCC(=O)N[C@@H](CCCNC(=N)N)C(=O)N[C@@H](CCCCN)C(=O)O

61
9320

# credit: paper PMC3794980
